- System: EKVX NSCLC
- Measurement Notes: NCI-60 one-dose screen, 48 h (100 = growth as untreated, 0 = no growth, -100 = all killed)
- Condition: 10 µM unless noted
This is part of a sample that, as a whole, favours compounds with a hit. Of some 83,000 tested, about 20% had one in any assay.
// classify: if (growth < 70%) Satisfied else Not satisfied

Previously resolved entries follow.
>  <Molecular String>
CCCCCCNC(=O)Oc1ccc(/C(=C(/C)c2ccccc2)c2ccc(OCCN3CCCCCC3)cc2)cc1

>  <Target System>
EKVX NSCLC

>  <Discrete Label>
Satisfied

$$$$
>  <Molecular String>
CN(C)c1ccc(-c2c(NC(C)(C)C)nc3c(OCCc4ccccc4)cccn23)cc1

>  <Target System>
EKVX NSCLC

>  <Discrete Label>
Satisfied

$$$$
>  <Molecular String>
Cc1c(NC(=O)CSc2nc3sc4c(c3c(=O)n2-c2ccc(Cl)cc2)CCCC4)c(=O)n(-c2ccccc2)n1C

>  <Target System>
EKVX NSCLC

>  <Discrete Label>
Not satisfied

$$$$

Now consider the entry below.
Please check: growth for CN(C)c1ccc(/C=c2\sc3nc4ccccc4n3c2=O)cc1 , strictly under 70% or not?
Not satisfied
